PROTOCOL_DETAILS: TD-6450 phase I clinical study (SAD/MAD): pharmacokinetics
Format: in vivo, human
RECORDED_CONDITIONS: female, human, plasma, oral, 15 mg, Female subjects, SAD arm NCT02022306, Dose 15.00, 8 Hours; read-out: Concentration
Experimental: Primary and secondary outcomes were pre-defined as follows: Safety and tolerability as a primary outcome, pharmacokinetics as a secondary outcome. Safety and tolerability were evaluated using standard measures, including adverse event (AE) monitoring, clinical laboratory tests (hematology, serum chemistry, coagulation, and urinalysis), vital signs, physical examinations, and 12-lead electrocardiograms (ECGs). […] This study was conducted in two parts, Part A (SAD) and Part B (MAD). […]
MEASURE_NAME: concentration at 8 h (ng/mL)
One number for each entry, in ng/mL.

Any idea what concentration at 8 h was measured for CNC(=O)N1C[C@@H](C)N(c2ccc(C(=O)Nc3ccc(-c4ccc(-c5c[nH]c([C@@H]6CCCN6C(=O)[C@@H](NC(=O)OC)C(C)C)n5)cc4)c(OC(F)(F)F)c3)cn2)C[C@@H]1C ?
15.1

----------
PROTOCOL_DETAILS: TD-6450 phase I clinical study (SAD/MAD): pharmacokinetics
Format: in vivo, human
RECORDED_CONDITIONS: both sexes, human, plasma, oral, 500 mg, SAD 500 mg; read-out: Cmax Mean ± SD
MEASURE_NAME: Cmax (µM)
Answers are plain numbers, in µM.

Any idea what Cmax was measured for CNC(=O)N1C[C@@H](C)N(c2ccc(C(=O)Nc3ccc(-c4ccc(-c5c[nH]c([C@@H]6CCCN6C(=O)[C@@H](NC(=O)OC)C(C)C)n5)cc4)c(OC(F)(F)F)c3)cn2)C[C@@H]1C ?
0.244

----------
PROTOCOL_DETAILS: TD-6450 phase I clinical study (SAD/MAD): pharmacokinetics
Type: in vivo, human
RECORDED_CONDITIONS: male, human, plasma, oral, 30 mg, Male subjects, SAD arm NCT02022306, Dose 30.00, 15 Minutes; read-out: Concentration
MEASURE_NAME: concentration at 15 min (ng/mL)
Answers are plain numbers, in ng/mL.

Any idea what concentration at 15 min was measured for CNC(=O)N1C[C@@H](C)N(c2ccc(C(=O)Nc3ccc(-c4ccc(-c5c[nH]c([C@@H]6CCCN6C(=O)[C@@H](NC(=O)OC)C(C)C)n5)cc4)c(OC(F)(F)F)c3)cn2)C[C@@H]1C ?
0

----------
PROTOCOL_DETAILS: TD-6450 phase I clinical study (SAD/MAD): pharmacokinetics
Type: in vivo, human
RECORDED_CONDITIONS: male, human, plasma, oral, 30 mg, Male subjects, SAD arm NCT02022306, Dose 30.00, 168 Hours; read-out: Concentration
MEASURE_NAME: concentration at 168 h (ng/mL)
Answers are plain numbers, in ng/mL.

Any idea what concentration at 168 h was measured for CNC(=O)N1C[C@@H](C)N(c2ccc(C(=O)Nc3ccc(-c4ccc(-c5c[nH]c([C@@H]6CCCN6C(=O)[C@@H](NC(=O)OC)C(C)C)n5)cc4)c(OC(F)(F)F)c3)cn2)C[C@@H]1C ?
2.33

----------
PROTOCOL_DETAILS: TD-6450 phase I clinical study (SAD/MAD): pharmacokinetics
Assay type: in vivo, human
RECORDED_CONDITIONS: human, in vivo, 5 mg; Female subjects, SAD arm NCT02022306, Dose 5.00, 120 Hours; read-out: Concentration
MEASURE_NAME: concentration at 120 h (ng/mL)
Give bare numbers, in ng/mL.

Any idea what concentration at 120 h was measured for CNC(=O)N1C[C@@H](C)N(c2ccc(C(=O)Nc3ccc(-c4ccc(-c5c[nH]c([C@@H]6CCCN6C(=O)[C@@H](NC(=O)OC)C(C)C)n5)cc4)c(OC(F)(F)F)c3)cn2)C[C@@H]1C ?
1.07

----------
PROTOCOL_DETAILS: TD-6450 phase I clinical study (SAD/MAD): pharmacokinetics
Format: in vivo, human
RECORDED_CONDITIONS: female, human, plasma, oral, 15 mg, Female subjects, SAD arm NCT02022306, Dose 15.00, 4 Hours; read-out: Concentration
MEASURE_NAME: concentration at 4 h (ng/mL)
Answers are plain numbers, in ng/mL.

Any idea what concentration at 4 h was measured for CNC(=O)N1C[C@@H](C)N(c2ccc(C(=O)Nc3ccc(-c4ccc(-c5c[nH]c([C@@H]6CCCN6C(=O)[C@@H](NC(=O)OC)C(C)C)n5)cc4)c(OC(F)(F)F)c3)cn2)C[C@@H]1C [TD-6450] ?
18

----------
PROTOCOL_DETAILS: TD-6450 phase I clinical study (SAD/MAD): pharmacokinetics
Format: in vivo, human
RECORDED_CONDITIONS: female, human, plasma, oral, 60 mg, Female subjects, SAD arm NCT02022306, Dose 60.00, 168 Hours; read-out: Concentration
MEASURE_NAME: concentration at 168 h (ng/mL)
Give bare numbers, in ng/mL.

Any idea what concentration at 168 h was measured for CNC(=O)N1C[C@@H](C)N(c2ccc(C(=O)Nc3ccc(-c4ccc(-c5c[nH]c([C@@H]6CCCN6C(=O)[C@@H](NC(=O)OC)C(C)C)n5)cc4)c(OC(F)(F)F)c3)cn2)C[C@@H]1C [TD-6450] ?
8.61

----------
PROTOCOL_DETAILS: TD-6450 phase I clinical study (SAD/MAD): pharmacokinetics
Format: in vivo, human
RECORDED_CONDITIONS: female, human, plasma, oral, 30 mg, Female subjects, SAD arm NCT02022306, Dose 30.00, 15 Minutes; read-out: Concentration
MEASURE_NAME: concentration at 15 min (ng/mL)
Numbers only, in ng/mL.

Any idea what concentration at 15 min was measured for CNC(=O)N1C[C@@H](C)N(c2ccc(C(=O)Nc3ccc(-c4ccc(-c5c[nH]c([C@@H]6CCCN6C(=O)[C@@H](NC(=O)OC)C(C)C)n5)cc4)c(OC(F)(F)F)c3)cn2)C[C@@H]1C ?
0

----------
PROTOCOL_DETAILS: TD-6450 phase I clinical study (SAD/MAD): pharmacokinetics
Format: in vivo, human
RECORDED_CONDITIONS: female, human, plasma, oral, 0.5 mg, Female subjects, SAD arm NCT02022306, Dose 0.50, 120 Hours; read-out: Concentration
MEASURE_NAME: concentration at 120 h (ng/mL)
Answers are plain numbers, in ng/mL.

Any idea what concentration at 120 h was measured for CNC(=O)N1C[C@@H](C)N(c2ccc(C(=O)Nc3ccc(-c4ccc(-c5c[nH]c([C@@H]6CCCN6C(=O)[C@@H](NC(=O)OC)C(C)C)n5)cc4)c(OC(F)(F)F)c3)cn2)C[C@@H]1C [TD-6450] ?
0

----------
PROTOCOL_DETAILS: TD-6450 phase I clinical study (SAD/MAD): pharmacokinetics
Format: in vivo, human
RECORDED_CONDITIONS: female, human, plasma, oral, 15 mg, Female subjects, SAD arm NCT02022306, Dose 15.00, 168 Hours; read-out: Concentration
MEASURE_NAME: concentration at 168 h
State the value with its unit after it.

Any idea what concentration at 168 h was measured for CNC(=O)N1C[C@@H](C)N(c2ccc(C(=O)Nc3ccc(-c4ccc(-c5c[nH]c([C@@H]6CCCN6C(=O)[C@@H](NC(=O)OC)C(C)C)n5)cc4)c(OC(F)(F)F)c3)cn2)C[C@@H]1C ?
3.58 ng/mL

----------
PROTOCOL_DETAILS: TD-6450 phase I clinical study (SAD/MAD): pharmacokinetics
Type: in vivo, human
RECORDED_CONDITIONS: male, human, plasma, oral, 0.5 mg, Male subjects, SAD arm NCT02022306, Dose 0.50, 72 Hours; read-out: Concentration
MEASURE_NAME: concentration at 72 h (ng/mL)
Numbers only, in ng/mL.

Any idea what concentration at 72 h was measured for CNC(=O)N1C[C@@H](C)N(c2ccc(C(=O)Nc3ccc(-c4ccc(-c5c[nH]c([C@@H]6CCCN6C(=O)[C@@H](NC(=O)OC)C(C)C)n5)cc4)c(OC(F)(F)F)c3)cn2)C[C@@H]1C [TD-6450] ?
0

----------
System: synchronized ring-stage P. falciparum NF54
PROTOCOL_DETAILS: Dose-response analysis on asexual parasites, NF54
Assay type: cell-based, Plasmodium falciparum
RECORDED_CONDITIONS: Plasmodium falciparum, NF54; ring stage, 48 h, red curves; read-out: IC50, NF54 strain (Fig. 5B)
MEASURE_NAME: pIC50
Answers are plain numbers, as −log10 of the molar value.

Any idea what pIC50 was measured for C[C@H]1Cc2c([nH]c3cc(Cl)c(F)cc23)[C@@]2(N1)C(=O)Nc1ccc(Cl)cc12 ?
8.74
